testTarget: GST-tagged truncated LRRK2 (Homo sapiens)
Construct: GST-tagged truncated LRRK2 from Invitrogen (Cat # PV4874); GST; purchased Invitrogen PV4874
experimentalDetails: LRRK2 Assay, Format 2 (Lantha Screen), WT
Type: biochemical
cond: geometric mean of 2-4 determinations unless otherwise indicated (a: >=5; b: single determination)
Where a name gives a salt, the structure may show the parent alone.
recordedEndpoint: pIC50
Note on units: pIC50 is unitless, being -log10 of a concentration expressed in mol/L.

Example entries begin here.
[in] Any idea what pIC50 was measured for Cc1nc(Cc2nc3cnc4ccc(C#N)cc4c3n2[C@@H]2CCO[C@H](C)C2)c(C2CC2)o1 [Example 155, formate salt] ?
[out] 7.93

[in] // query: Cc1cn(Cc2nc3cnc4ccc(Cl)cc4c3n2[C@H]2CC[C@@H](F)C2)nn1 (single isomer, unassigned) [Example C55]
[out] 7.74

Continuing:
[in] Any idea what pIC50 was measured for C[C@@H]1C[C@H](n2c(C(F)c3ccon3)nc3cnc4ccc(Cl)cc4c32)CCO1 (single isomer, unassigned) [Example 237] ?
[out] 8.40

====

testTarget: GST-tagged truncated LRRK2 (Homo sapiens, UniProt Q5S007)
Construct: GST-tagged truncated LRRK2 from Invitrogen (Cat # PV4874); GST; purchased Invitrogen PV4874
Sequence (Q5S007 970-2527 limits assumed): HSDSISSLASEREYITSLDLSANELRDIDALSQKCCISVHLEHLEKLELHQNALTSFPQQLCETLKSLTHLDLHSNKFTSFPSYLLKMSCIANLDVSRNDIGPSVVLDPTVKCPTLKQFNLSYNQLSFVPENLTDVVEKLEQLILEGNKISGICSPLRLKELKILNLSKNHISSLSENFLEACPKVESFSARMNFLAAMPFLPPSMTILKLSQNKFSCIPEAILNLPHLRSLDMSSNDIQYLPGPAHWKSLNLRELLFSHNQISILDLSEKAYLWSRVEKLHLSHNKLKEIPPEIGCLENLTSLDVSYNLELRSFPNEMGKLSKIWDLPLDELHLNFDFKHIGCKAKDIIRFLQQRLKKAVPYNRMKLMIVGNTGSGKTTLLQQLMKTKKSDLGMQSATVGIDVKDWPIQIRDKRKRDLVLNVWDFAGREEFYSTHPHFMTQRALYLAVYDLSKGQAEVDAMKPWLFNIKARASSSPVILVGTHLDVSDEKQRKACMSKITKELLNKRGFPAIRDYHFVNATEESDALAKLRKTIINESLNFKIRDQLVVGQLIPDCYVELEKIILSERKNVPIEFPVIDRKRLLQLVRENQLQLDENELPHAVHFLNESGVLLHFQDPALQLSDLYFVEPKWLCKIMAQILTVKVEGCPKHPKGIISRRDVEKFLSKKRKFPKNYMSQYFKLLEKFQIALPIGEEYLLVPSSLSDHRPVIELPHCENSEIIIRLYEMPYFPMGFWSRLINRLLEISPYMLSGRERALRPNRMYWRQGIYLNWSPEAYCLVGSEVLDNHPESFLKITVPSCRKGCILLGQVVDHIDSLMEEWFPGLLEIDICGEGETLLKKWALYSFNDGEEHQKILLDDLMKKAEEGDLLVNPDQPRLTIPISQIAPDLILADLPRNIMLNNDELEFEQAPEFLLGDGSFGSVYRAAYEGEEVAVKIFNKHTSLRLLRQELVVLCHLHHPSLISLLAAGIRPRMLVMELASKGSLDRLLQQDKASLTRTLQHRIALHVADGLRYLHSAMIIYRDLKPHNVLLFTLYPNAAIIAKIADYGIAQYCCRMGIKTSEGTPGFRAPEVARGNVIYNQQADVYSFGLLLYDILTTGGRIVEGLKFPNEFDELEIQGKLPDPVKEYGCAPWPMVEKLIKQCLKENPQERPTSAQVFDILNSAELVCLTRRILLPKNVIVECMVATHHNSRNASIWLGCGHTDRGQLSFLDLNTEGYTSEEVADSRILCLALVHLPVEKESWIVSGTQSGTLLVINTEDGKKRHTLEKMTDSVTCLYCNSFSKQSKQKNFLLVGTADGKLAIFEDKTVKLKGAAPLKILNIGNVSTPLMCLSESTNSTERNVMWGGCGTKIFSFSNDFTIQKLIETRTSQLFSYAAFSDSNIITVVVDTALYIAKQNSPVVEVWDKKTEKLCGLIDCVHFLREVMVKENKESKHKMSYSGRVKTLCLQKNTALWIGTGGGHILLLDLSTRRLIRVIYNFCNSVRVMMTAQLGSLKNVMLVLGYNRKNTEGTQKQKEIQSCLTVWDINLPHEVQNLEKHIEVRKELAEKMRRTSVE
experimentalDetails: LRRK2 Assay, Format 2 (Lantha Screen), WT
Type: biochemical
cond: geometric mean of 2-4 determinations unless otherwise indicated (a: >=5; b: single determination)
recordedEndpoint: IC50 (nM)
Number only, in nM; omit the unit.

Example entries begin here.
[in] Hi! What's the reported IC50 for Cc1cn(Cc2nc3cnc4ccc(C#N)cc4c3n2C2CCCC2(F)F)nn1 (single isomer, unassigned; ent-1) [Example 196] on GST-tagged truncated LRRK2 (Homo sapiens, UniProt Q5S007)?
[out] 18.8

[in] // query: CC(C)c1cc(Cc2nc3cnc4ccc(Br)cc4c3n2[C@@H]2CCO[C@H](C)C2)no1 [Example 171]
[out] 5.2

Note: attention shifts to another entry.
[in] Hi! What's the reported IC50 for C[C@@H]1C[C@H](n2c(Cc3cc(C4CC4)on3)nc3cnc4ccc(Br)cc4c32)CCO1 [Example 172] on GST-tagged truncated LRRK2 (Homo sapiens, UniProt Q5S007)?
[out] 6

====

testTarget: mutant G2019S LRRK2 (Homo sapiens, UniProt Q5S007, G2019S)
Sequence (Q5S007 970-2527 G2019S limits assumed): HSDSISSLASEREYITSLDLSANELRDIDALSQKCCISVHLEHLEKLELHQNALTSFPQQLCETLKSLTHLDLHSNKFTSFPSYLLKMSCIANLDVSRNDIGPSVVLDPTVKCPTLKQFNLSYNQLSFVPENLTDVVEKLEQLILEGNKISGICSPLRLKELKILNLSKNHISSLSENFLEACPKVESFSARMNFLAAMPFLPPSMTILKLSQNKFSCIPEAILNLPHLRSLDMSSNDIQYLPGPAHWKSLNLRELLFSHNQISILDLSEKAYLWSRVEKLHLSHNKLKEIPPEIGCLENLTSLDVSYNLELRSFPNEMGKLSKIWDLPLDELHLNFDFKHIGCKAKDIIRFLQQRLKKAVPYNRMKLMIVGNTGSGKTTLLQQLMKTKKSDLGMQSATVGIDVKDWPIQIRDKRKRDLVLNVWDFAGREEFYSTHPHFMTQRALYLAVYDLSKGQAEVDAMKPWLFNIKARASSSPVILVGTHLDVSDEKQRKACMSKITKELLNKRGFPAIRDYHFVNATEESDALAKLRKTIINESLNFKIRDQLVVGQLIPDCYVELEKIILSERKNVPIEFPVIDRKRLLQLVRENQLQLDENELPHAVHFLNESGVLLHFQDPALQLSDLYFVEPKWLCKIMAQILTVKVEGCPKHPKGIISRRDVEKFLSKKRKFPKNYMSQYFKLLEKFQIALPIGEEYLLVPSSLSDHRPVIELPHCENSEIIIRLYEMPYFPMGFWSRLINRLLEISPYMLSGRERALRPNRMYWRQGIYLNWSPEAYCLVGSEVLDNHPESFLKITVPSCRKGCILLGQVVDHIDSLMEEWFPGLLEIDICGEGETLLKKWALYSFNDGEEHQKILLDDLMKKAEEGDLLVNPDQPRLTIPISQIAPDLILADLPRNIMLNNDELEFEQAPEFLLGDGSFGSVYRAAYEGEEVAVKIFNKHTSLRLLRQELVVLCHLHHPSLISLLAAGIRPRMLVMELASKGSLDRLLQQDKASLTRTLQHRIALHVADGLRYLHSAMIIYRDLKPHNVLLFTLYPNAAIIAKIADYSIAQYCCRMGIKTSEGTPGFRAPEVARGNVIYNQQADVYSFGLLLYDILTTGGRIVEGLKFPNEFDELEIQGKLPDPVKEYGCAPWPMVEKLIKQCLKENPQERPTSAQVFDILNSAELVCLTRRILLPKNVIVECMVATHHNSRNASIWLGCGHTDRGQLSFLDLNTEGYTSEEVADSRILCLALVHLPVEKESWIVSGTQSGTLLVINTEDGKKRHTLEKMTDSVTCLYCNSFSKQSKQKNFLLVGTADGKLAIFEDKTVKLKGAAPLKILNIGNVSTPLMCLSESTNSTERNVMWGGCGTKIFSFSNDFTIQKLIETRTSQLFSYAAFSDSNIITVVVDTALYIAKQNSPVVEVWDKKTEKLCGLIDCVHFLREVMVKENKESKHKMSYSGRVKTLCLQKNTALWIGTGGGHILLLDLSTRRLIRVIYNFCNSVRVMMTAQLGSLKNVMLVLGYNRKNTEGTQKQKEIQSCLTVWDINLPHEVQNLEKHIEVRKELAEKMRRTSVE
experimentalDetails: LRRK2 Assay, Format 1 (Lantha Screen), G2019S mutant
pIC50: −log10 of the molar value. Where a name gives a salt, the structure may show the parent alone.
Label 1 for high-side pIC50 (at or above 7) and -1 for low-side pIC50 (below it).

[in] hey, is pIC50 for this one >= 7? "c1ccc2c(c1)ncc1nc(Cc3ccon3)n(C3CCOCC3)c12"
[out] -1

[in] // query: CC[C@H]1C[C@@H](n2c(Cc3ccon3)nc3cnc4ccc(C#N)cc4c32)CCO1 [enantiomer of Example 67]
[out] -1

[in] // query: "Cc1cc(Cc2nc3cnc4ccc(Cl)cc4c3n2[C@@H]2CCO[C@H](C)C2)no1"
[out] 1

[in] // query: Clc1ccc2ncc3nc(Cc4ccon4)n(C4CCOCC4)c3c2c1 [Example 63, formate salt]
[out] 1

[in] // query: "COc1ccc2ncc3nc(Cc4ccon4)n([C@@H]4CCO[C@H](C)C4)c3c2c1"
[out] 1

[in] // query: COc1ccc2ncc3nc(Cc4ccon4)n([C@H]4CCO[C@@H](C)C4)c3c2c1 [enantiomer of Example 62]
[out] -1

[in] // query: Cc1nc(Cc2nc3cnc4ccc(Cl)cc4c3n2C2CCOC(CC#N)C2)no1 (single isomer, unassigned; ent-2) [enantiomer of Example 135]
[out] -1

[in] // query: C[C@H]1C[C@@H](n2c(Cc3ccon3)nc3cnc4ccc(Br)cc4c32)CCO1 (single isomer, unassigned) [enantiomer of Example 12]
[out] -1

Continuing:
[in] hey, is pIC50 for this one >= 7? "Cc1cnc(Cc2nc3cnc4ccc(Cl)cc4c3n2[C@@H]2CCO[C@H](C)C2)o1"
[out] 1

[in] // query: Cc1nc2cnc3ccc(C#N)cc3c2n1[C@H]1CCO[C@@H](C)C1 (racemic)
[out] 1

Origin of the recorded values: patent US10039753B2
